For each entry below, report its pEC50 value.
Biological target: Peroxisome proliferator-activated receptor delta (Homo sapiens, UniProt Q03181)
Sequence (Q03181 whole entry): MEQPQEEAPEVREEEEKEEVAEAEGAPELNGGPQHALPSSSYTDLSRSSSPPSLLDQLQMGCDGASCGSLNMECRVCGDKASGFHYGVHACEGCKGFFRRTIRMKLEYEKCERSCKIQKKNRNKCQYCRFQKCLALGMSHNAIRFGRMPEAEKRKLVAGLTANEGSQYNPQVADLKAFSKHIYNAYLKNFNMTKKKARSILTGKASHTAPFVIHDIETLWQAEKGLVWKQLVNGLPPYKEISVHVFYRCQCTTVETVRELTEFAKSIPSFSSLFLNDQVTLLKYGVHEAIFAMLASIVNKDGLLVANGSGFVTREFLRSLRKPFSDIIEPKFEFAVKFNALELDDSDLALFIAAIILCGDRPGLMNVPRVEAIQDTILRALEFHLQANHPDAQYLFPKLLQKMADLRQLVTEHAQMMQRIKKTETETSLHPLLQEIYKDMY
Assay: Agonist activity at human PPAR delta by FRET assay
Assay type: functional
// scale note: pEC50 = -log10(conc_M); give the bare number

Data request: Item N#Cc1ccc(OCCCOc2ccc3c(c2)CC[C@H]3CC(=O)O)cc1 has what recorded pEC50?
Data returned: 8.14

Data request: Now try Cc1c(OCCCOc2ccc3c(c2)CC[C@H]3CC(=O)O)ccc2[nH]ccc12 .
Data returned: 6.54

Data request: Now try CCCc1c(OCCCOc2ccc3c(c2)CC[C@H]3CC(=O)O)ccc2c(C(F)(F)F)noc12 .
Data returned: 8.22

Data request: Now try CCOc1ccc(OCCCOc2ccc3c(c2)CC[C@H]3CC(=O)O)cc1 .
Data returned: 8.18

Data request: Now try CCOc1csc(-c2ccc(OCCCOc3ccc4c(c3)CC[C@H]4CC(=O)O)c(OC)c2)n1 .
Data returned: 8.47

Data request: Now try COc1cc(-c2nc3c(s2)CCCO3)ccc1OCCCOc1ccc2c(c1)CC[C@H]2CC(=O)O .
Data returned: 8.89

Data request: Now try CCCc1cc(-c2nc(C(F)(F)F)cs2)ccc1OCCCOc1ccc2c(c1)CC[C@H]2CC(=O)O .
Data returned: 8.48

Data request: Now try O=C(O)C[C@@H]1CCc2cc(OCCCOc3ccccc3)ccc21 .
Data returned: 7.36

Data request: Now try Cc1ccc(OCCCOc2ccc3c(c2)CC[C@H]3CC(=O)O)c(C)c1 .
Data returned: 8.34

Data request: Now try COc1ccncc1-c1ccc(OCCCOc2ccc3c(c2)CC[C@H]3CC(=O)O)cc1 .
Data returned: 7.37

----------
biological target: Progesterone receptor (Homo sapiens, UniProt P06401); assay: Displacement of [3H]progesterone from progesterone receptor in T47D cells
Sequence (P06401 whole entry): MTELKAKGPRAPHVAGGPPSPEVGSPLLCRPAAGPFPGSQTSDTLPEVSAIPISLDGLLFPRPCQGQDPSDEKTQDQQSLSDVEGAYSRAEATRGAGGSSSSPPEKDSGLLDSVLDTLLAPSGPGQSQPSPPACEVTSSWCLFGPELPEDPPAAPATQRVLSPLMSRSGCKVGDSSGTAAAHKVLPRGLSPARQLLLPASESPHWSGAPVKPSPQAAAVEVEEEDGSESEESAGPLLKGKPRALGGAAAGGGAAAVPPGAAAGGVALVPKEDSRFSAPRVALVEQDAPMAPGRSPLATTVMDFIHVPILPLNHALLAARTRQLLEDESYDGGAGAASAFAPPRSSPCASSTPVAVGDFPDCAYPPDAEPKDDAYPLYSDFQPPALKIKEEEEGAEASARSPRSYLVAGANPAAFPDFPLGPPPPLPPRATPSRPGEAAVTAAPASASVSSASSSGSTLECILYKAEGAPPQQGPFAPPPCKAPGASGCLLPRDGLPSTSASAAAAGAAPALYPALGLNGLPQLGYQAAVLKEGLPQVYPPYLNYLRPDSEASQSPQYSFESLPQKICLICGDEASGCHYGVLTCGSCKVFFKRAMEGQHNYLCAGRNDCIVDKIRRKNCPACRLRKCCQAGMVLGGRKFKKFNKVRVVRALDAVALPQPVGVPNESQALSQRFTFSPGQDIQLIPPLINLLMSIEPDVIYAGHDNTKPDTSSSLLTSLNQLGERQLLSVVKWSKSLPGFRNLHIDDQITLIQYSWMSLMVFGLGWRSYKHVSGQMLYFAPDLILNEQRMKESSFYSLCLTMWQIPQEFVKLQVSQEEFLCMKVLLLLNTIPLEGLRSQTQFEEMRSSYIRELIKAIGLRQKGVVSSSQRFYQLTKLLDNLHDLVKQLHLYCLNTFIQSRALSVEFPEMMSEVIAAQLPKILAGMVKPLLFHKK
Readout name: EC50

Data request: Item CCCc1cc(-c2nc3c(s2)CCCC3)ccc1OCCCOc1ccc2c(c1)CC[C@H]2CC(=O)O has what recorded EC50?
Data returned: > 10 µM

Data request: Now try O=C(O)C[C@@H]1CCc2cc(OCCCOc3ccc(-c4nc5c(s4)CCCC5)cc3)ccc21 .
Data returned: > 10 µM

----------
Quick note: these are IC50 numbers for system: Cytochrome P450 2C9 (Homo sapiens)
Sequence (P11712 whole entry): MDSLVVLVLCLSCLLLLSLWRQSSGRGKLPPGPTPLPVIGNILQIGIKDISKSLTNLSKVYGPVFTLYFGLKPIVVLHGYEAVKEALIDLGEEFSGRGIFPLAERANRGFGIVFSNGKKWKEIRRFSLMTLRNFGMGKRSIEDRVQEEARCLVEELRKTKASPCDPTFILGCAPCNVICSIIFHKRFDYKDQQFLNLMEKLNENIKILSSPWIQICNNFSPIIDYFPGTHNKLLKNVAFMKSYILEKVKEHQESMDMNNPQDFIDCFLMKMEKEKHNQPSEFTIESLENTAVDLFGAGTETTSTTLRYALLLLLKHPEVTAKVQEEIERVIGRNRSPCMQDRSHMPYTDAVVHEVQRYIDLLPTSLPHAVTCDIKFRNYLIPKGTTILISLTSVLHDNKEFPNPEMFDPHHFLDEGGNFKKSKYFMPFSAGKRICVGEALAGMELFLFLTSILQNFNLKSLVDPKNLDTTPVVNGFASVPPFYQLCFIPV

Data request: Item CCCc1cc(-c2nc3c(s2)CCCC3)ccc1OCCCOc1ccc2c(c1)CC[C@H]2CC(=O)O has what recorded IC50?
Data returned: > 10 µM

Data request: Now try O=C(O)C[C@@H]1CCc2cc(OCCCOc3ccc(-c4nc5c(s4)CCCC5)cc3)ccc21 .
Data returned: > 10 µM

----------
Target: Peroxisome proliferator-activated receptor alpha (Homo sapiens, UniProt Q07869)
Sequence (Q07869 whole entry): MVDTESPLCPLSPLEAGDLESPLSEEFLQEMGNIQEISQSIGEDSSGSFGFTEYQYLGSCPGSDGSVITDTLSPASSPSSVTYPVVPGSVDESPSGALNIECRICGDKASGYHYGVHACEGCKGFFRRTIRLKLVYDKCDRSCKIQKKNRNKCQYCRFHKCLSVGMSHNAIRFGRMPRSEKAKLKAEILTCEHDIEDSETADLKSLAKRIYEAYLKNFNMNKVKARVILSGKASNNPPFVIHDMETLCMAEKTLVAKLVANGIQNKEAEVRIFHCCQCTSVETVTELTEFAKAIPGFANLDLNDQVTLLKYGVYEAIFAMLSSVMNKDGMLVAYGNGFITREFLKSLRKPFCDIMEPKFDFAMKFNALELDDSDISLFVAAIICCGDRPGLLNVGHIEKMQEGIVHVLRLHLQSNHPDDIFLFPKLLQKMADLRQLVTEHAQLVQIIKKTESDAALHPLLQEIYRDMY
Experiment: Agonist activity at human PPAR alpha by FRET assay
Type: functional
Readout name: EC50

Data request: Item COc1csc(-c2ccc(OCCCOc3ccc4c(c3)CC[C@H]4CC(=O)O)c(OC)c2)n1 has what recorded EC50?
Data returned: 0.755 µM

Data request: Now try O=C(O)C[C@@H]1CCc2cc(OCCCOc3ccc4cc[nH]c4c3)ccc21 .
Data returned: > 10 µM

Data request: Now try COc1cc(-c2nc3c(s2)CCC3)ccc1OCCCOc1ccc2c(c1)CC[C@H]2CC(=O)O .
Data returned: 0.053 µM

Data request: Now try CCCc1c(OCCCOc2ccc3c(c2)CC[C@H]3CC(=O)O)ccc2[nH]ccc12 .
Data returned: > 10 µM

Data request: Now try CCc1ccc(OCCCOc2ccc3c(c2)CC[C@H]3CC(=O)O)c(OC)c1 .
Data returned: 0.7 µM

Data request: Now try CCc1ccc(OCCCOc2ccc3c(c2)CC[C@H]3CC(=O)O)cc1 .
Data returned: 1.98 µM

Data request: Now try COc1cc(-c2nc(C)c(C(=O)N(C)C)s2)ccc1OCCCOc1ccc2c(c1)CC[C@H]2CC(=O)O .
Data returned: 0.803 µM

Data request: Now try O=C(O)C[C@@H]1CCc2cc(OCCCOc3ccc4[nH]ccc4c3)ccc21 .
Data returned: > 10 µM

Data request: Now try CCOc1nc(-c2ccc(OCCCOc3ccc4c(c3)CC[C@H]4CC(=O)O)c(OC)c2)sc1CC .
Data returned: 0.52 µM

----------
Biological target: Peroxisome proliferator-activated receptor gamma (Mus musculus, UniProt P37238)
Sequence (P37238 whole entry): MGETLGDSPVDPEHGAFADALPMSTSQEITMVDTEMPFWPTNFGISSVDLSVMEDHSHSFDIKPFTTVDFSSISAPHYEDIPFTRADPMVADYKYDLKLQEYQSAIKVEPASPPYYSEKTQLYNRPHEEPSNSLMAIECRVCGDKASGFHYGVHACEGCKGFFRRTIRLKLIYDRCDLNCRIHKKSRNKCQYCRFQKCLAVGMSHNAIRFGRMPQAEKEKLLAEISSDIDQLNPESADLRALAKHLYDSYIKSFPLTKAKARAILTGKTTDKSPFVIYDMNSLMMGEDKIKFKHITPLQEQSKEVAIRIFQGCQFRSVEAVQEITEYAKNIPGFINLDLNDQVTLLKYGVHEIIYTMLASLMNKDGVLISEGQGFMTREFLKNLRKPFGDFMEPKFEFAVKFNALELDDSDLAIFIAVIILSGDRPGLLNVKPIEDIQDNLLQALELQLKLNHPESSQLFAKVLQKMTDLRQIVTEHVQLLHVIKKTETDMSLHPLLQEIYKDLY
Test: Agonist activity at PPAR gamma in mouse 3T3L1 cells assessed as increase in insulin receptor by IRBA
Format: functional, cell-based, 3T3-L1
Readout name: EC50 (nM)
Hi! Could you send only the number? It should be in nM, unit omitted.

Data request: Item CCCc1c(OCCCOc2ccc3c(c2)CC[C@H]3CC(=O)O)ccc2c(C)noc12 has what recorded EC50?
Data returned: 173

Data request: Now try COc1cc(-c2nccs2)ccc1OCCCOc1ccc2c(c1)CC[C@H]2CC(=O)O .
Data returned: 374

Data request: Now try COc1cc(-c2nc3c(s2)CCCO3)ccc1OCCCOc1ccc2c(c1)CC[C@H]2CC(=O)O .
Data returned: 181

----------
biological target: Peroxisome proliferator-activated receptor gamma (Mus musculus, UniProt P37238); assay: Agonist activity at PPAR gamma in mouse 3T3L1 cells assessed as increase in insulin receptor by IRBA
For each entry below, report its pEC50 value.
// scale note: pEC50 = -log10(conc_M); give the bare number

Data request: Item Cn1ccc2cc(OCCCOc3ccc4c(c3)CC[C@H]4CC(=O)O)ccc21 has what recorded pEC50?
Data returned: 5.99

Data request: Now try COc1cc(-c2nc(C(F)(F)F)cs2)ccc1OCCCOc1ccc2c(c1)CC[C@H]2CC(=O)O .
Data returned: 6.49

Data request: Now try CCc1csc(-c2ccc(OCCCOc3ccc4c(c3)CC[C@H]4CC(=O)O)c(OC)c2)n1 .
Data returned: 7.19

Data request: Now try CCCc1cc(-c2nc3c(s2)CCC3)ccc1OCCCOc1ccc2c(c1)CC[C@H]2CC(=O)O .
Data returned: 7.03

Reference source for all entries: ChEMBL document CHEMBL1142242
